protocol summary: protein stability index of a GFP-peptide fusion (yeast GPS) (PSI 1-4); higher = more stable; sorted into four equal gates, so the index is relative within each strain
test parameters: ubr1∆
Could you label it t if measured protein stability index is 2 or higher, and f otherwise?

>>> discrete_label("QFTRFFLLVPSKQVQVS [ECM29]")
"f"
>>> discrete_label("GQCRPISKTVRFNVVKV [RPS11A]")
"t"
>>> discrete_label("EGKYIVDVAKDINVKDL [RPT6]")
"t"
>>> discrete_label("AYFLIIVPVISTIENVL [COB]")
"t"
>>> discrete_label("LQPFYSQPTAAGGPDMT [DSN1]")
"f"
>>> discrete_label("FTKKPVTPNDKIPEREE [SIR4]")
"t"
>>> discrete_label("AQQAQQAQQAQQAQARL [SNF2]")
"t"
>>> discrete_label("FLLEKAGERKIPHDLNF [TAF14]")
"t"

###

protocol summary: protein stability index of a GFP-peptide fusion (yeast GPS) (PSI 1-4); higher = more stable; sorted into four equal gates, so the index is relative within each strain
test parameters: san1∆
Quick list: protein stability index per entry.
value kind: protein stability index

>>> value_measured("NTHWGLVCPAETPEGQA [RPB2]")
1.78
>>> value_measured("DRVKVIECFKPGDIVRA [CSL4]")
2.1
>>> value_measured("QDRQQLLPLVVSNISCL [ECM29]")
1.29
>>> value_measured("ENNRLLFECRTCSYVEE [RPB9]")
3.04
>>> value_measured("LFAREIAKSQDKKSCSV [DPB4]")
3.14
>>> value_measured("WKNLVLKLSQAFGSSAT [YJR042W/NUP85]")
2.22
>>> value_measured("VRRGNRKRPVPKGATYG [RPL15A]")
3.6
>>> value_measured("YRFYEYIYSQETKSWIN [MED1]")
1.53
>>> value_measured("DTLDGDLMDDMSDISDL [RPN3]")
2.11
>>> value_measured("LLNDECTESTRENALYD [SNF2]")
3.31
>>> value_measured("YEMVIREKNALKRLAWQ [ISW2]")
2.32
>>> value_measured("LGFTPGELRSYLKGATG [FAS1]")
3.33
>>> value_measured("LSSGESNEIKVTNDLDT [SIR4]")
2.88
>>> value_measured("IIDRGRNVLSASLDGTI [RPN14]")
2.97
>>> value_measured("YAVAEQCPVKSAEDQLY [QCR2]")
3.15
>>> value_measured("VEELPTFHDYDMVKLDI [RRP42]")
2.87
>>> value_measured("LGYARFILLDRLRQFNL [SMC4]")
1.75
>>> value_measured("IPTLAIDSVEVETNTTV [RPB3]")
2.94
>>> value_measured("AHRVRDLMDEELRKHAQ [SKI6]")
2.83
>>> value_measured("GTNAMLPSPESLKTKLN [SNF5]")
2.19
>>> value_measured("SLLAMHKHNIMKNENAN [CDC53]")
2.82
>>> value_measured("ASKGRTKIDMPIKNRKN [BRN1]")
2.91
>>> value_measured("LFGENDTSTQAYEEEEE [NUT1]")
3.5
>>> value_measured("FTKNEEKLLKELENNEF [ITC1]")
2.27
>>> value_measured("YISLLKLQGLYENIPIY [YDL116W/NUP84]")
1.59
>>> value_measured("NFPVRQWSIEIVLLDDE [TAF14]")
2.37
>>> value_measured("RRFKNGFQTGSASKASA [RPL37A]")
3.06
>>> value_measured("ILKKSLMTSHTKGDTSK [RTT102]")
2.81
>>> value_measured("ININEFALPAGSPKSAT [CDC53]")
2.64
>>> value_measured("ILGDLGKEFGTTPEKPE [FAS2]")
2.51

###

protocol summary: protein stability index of a GFP-peptide fusion (yeast GPS) (PSI 1-4); higher = more stable; sorted into four equal gates, so the index is relative within each strain
test parameters: pdr5∆
value kind: protein stability index

>>> value_measured("EPSYIFEYLATVMYQRR [PRE4]")
2.46
>>> value_measured("GVSLLALWKEKKEKPRS [RPS23A]")
2.29
>>> value_measured("KPTVILKLLKENIIQME [FAS1]")
1.36
>>> value_measured("EPGVLNTGDGSISTYKD [ECM29]")
3.22
>>> value_measured("TWYVGNSRGKFDDACNQ [SSN2]")
3.14
>>> value_measured("PYYKYLCEEYLVNNGQS [RPN7]")
2.41
>>> value_measured("ELTSFSSQPLEPLSDTE [DSN1]")
3.12
>>> value_measured("SEHFLYLAKELNLTGPK [RPN1]")
2.81

###

protocol summary: protein stability index of a GFP-peptide fusion (yeast GPS) (PSI 1-4); higher = more stable; sorted into four equal gates, so the index is relative within each strain
test parameters: pdr5∆
Could you label it TRUE if measured protein stability index is 2 or higher, and FALSE otherwise?

>>> discrete_label("LAYENKITDKEDLLHYI [POP4]")
"TRUE"
>>> discrete_label("KLPLLNESLIPLINLAL [YML103C/NUP188]")
"TRUE"
>>> discrete_label("TWENEFLDSQRVWAEYA [PRP8]")
"TRUE"
>>> discrete_label("FANNHFLNSNAVVVGTG [COR1]")
"FALSE"
>>> discrete_label("DSTVNKSITLKGRNNES [YDL088C/ASM4]")
"TRUE"
>>> discrete_label("SQSRSAKAGLTFPVGRV [HTA1]")
"TRUE"
>>> discrete_label("SFILYYRRALQSSESFD [YML103C/NUP188]")
"TRUE"
>>> discrete_label("AHRIMLTNILRMMGCVK [FAS2]")
"FALSE"
>>> discrete_label("TAIDKNGNITYSEEPRE [FAS2]")
"TRUE"
>>> discrete_label("ENEFVVLLDARDIEKIT [CDC53]")
"TRUE"
>>> discrete_label("DTISAITHQLNNKFANK [RPC25]")
"TRUE"
>>> discrete_label("TFSWLNAELLDYLFHLL [YLR018C/POM34]")
"FALSE"
>>> discrete_label("LYTLVINDAGKAKKLIQ [RPL38]")
"TRUE"
>>> discrete_label("DDMDIDEVNDRSDISDS [PCI8]")
"TRUE"

###

protocol summary: protein stability index of a GFP-peptide fusion (yeast GPS) (PSI 1-4); higher = more stable; sorted into four equal gates, so the index is relative within each strain
test parameters: doa10∆
Could you label it rule met if measured protein stability index is 2 or higher, and rule not met otherwise?

>>> discrete_label("LISSSQDMQLKIWSVKD [RPN14]")
"rule met"
>>> discrete_label("GVKDCQEGLITTTMLQL [SSN2]")
"rule met"
>>> discrete_label("HCDKCSVVLTLQAFGES [RPB3]")
"rule met"
>>> discrete_label("ANLMLVMLRLLLVVIFK [SRB4]")
"rule not met"
>>> discrete_label("FAWSKPSTGSNLQQQQQ [YGR119C/NUP57]")
"rule met"
>>> discrete_label("EVLTYVNYLISNTMYSV [YJL039C/NUP192]")
"rule met"
>>> discrete_label("MKWSAIPFQTLYRSIES [YJL039C/NUP192]")
"rule not met"
>>> discrete_label("KVAPAPFGAKSTKSNKA [RPL8B]")
"rule met"
>>> discrete_label("KRSGHRTAPKSDNVYLK [RPL18A]")
"rule met"
>>> discrete_label("KNDNGGKMNNEVSTSTS [SWI3]")
"rule met"
>>> discrete_label("DAVEGVSECIILGQTMS [RPO31]")
"rule not met"
>>> discrete_label("QRRSWRQYVGQLAPSSV [DIS3]")
"rule met"
>>> discrete_label("MKDKEINIQKYNNNTIR [CSI1]")
"rule met"
>>> discrete_label("IKVDGAVGNLGNAIEVT [RPL22B]")
"rule not met"

###

protocol summary: protein stability index of a GFP-peptide fusion (yeast GPS) (PSI 1-4); higher = more stable; sorted into four equal gates, so the index is relative within each strain
test parameters: ubr1∆
value kind: protein stability index

>>> value_measured("IGIVEIAHENEQKWLIY [SRB8]")
1.54
>>> value_measured("SKYYPGVIIKVEESGEH [SNU114]")
2.42
>>> value_measured("DIIVAIKIFELKLPADA [IRR1]")
1.83
>>> value_measured("VAAAGITASTLLYADSL [CYT1]")
1.93
>>> value_measured("AGKFELLDRILPKLKAT [SNF2]")
1.95
>>> value_measured("QDSILIIYPRSQTTLVQ [ARP9]")
2.46
>>> value_measured("EDVLVNQILMSVNFFVS [RPL1A]")
2.23
>>> value_measured("DSTPEEVSCKLLETITY [YML103C/NUP188]")
2.79
>>> value_measured("HLEALQPLFSTVPEYLK [PGD1]")
2.12
>>> value_measured("NSLLTIVWRFISENTFP [RPC34]")
2.31
>>> value_measured("SFLGEAKSMAFLKEVLS [YML103C/NUP188]")
2.54
>>> value_measured("EQFKMVSMITDHNALPQ [POP1]")
2.85
>>> value_measured("GTPEATKGMITNLQRNV [NUT2]")
3.09
>>> value_measured("ILARNDEEMAVLTRMDE [SNF2]")
3.15
